Experimental endpoint: melting point

O=C1Nc2ccc(-c3cccc(Cl)c3)cc2C12OCCCO2 :: 242 to 244 °C
CCC1(CC)C(=O)Nc2ccc(-c3cccc(Cl)c3)cc21 :: 195 to 197 °C
CC1(C)C(=O)Nc2ccc(-c3ccc(F)c(Cl)c3)cc21 :: 206.5 to 207.8 °C
O=C1Nc2ccc(-c3ccc([N+](=O)[O-])[nH]3)cc2C12CCCCC2 :: 278 °C (dec.)

Exercise: // returns reported melting point for input "CC1(C)C(=O)Nc2ccc(-c3ccc(C#N)s3)cc21"
Solution: 255 to 256 °C

====

Experimental endpoint: melting point

Take a look at these entries with their results.
O=C1Nc2ccc(-c3cccc([N+](=O)[O-])c3)cc2C12CCCCC2 [Example 30] :: 196 to 198 °C
CC1(C)C(=O)Nc2ccc(C3([N+](=O)[O-])C=CC=N3)cc21 (stereo not shown) [Example 85] :: 293.9 to 294.2 °C (dec.)
CC1(C)C(=O)Nc2ccc(-c3cccc(C#N)c3F)cc21 [Example 87] :: 270 to 272 °C
CC1(C)C(=O)Nc2ccc(-c3cccc(Cl)c3)cc21 [Example 4] :: 188 to 189 °C
O=C1Nc2ccc(-c3cccc4[nH]ccc34)cc2C12CCCCC2 [Example 46] :: 211 to 213 °C

Exercise: // returns reported melting point for input CC1(C)C(=O)Nc2ccc(-c3ccc([N+](=O)[O-])s3)cc21 [Example 83]
Solution: 223 to 225 °C

Exercise: // returns reported melting point for input CC1(C)C(=O)Nc2ccc(-c3coc(C#N)c3)cc21 [Example 72]
Solution: 199.6 to 201.4 °C

====

Experimental endpoint: melting point

Take a look at these entries with their results.
O=C1Nc2ccc(-c3cc(F)cc(F)c3)cc2C12CCCCC2 :: 180 to 183 °C
O=C1Nc2ccc(-c3cc(F)cc(Cl)c3)cc2C12CCCCC2 :: 178 to 180 °C
N#Cc1ccc(-c2ccc3c(c2)C2(CCCCC2)C(=O)N3)s1 :: 225 to 228 °C
O=C1Cc2cc(-c3cccc(Cl)c3)ccc2N1 :: 169 to 171 °C
N#Cc1cccc(-c2ccc3c(c2)C2(CCCC2)C(=O)N3)c1 :: 217 to 219 °C

Exercise: // returns reported melting point for input "Cn1c(-c2ccc3c(c2)C2(CCCCC2)C(=O)N3)ccc1[N+](=O)[O-]"
Solution: 210 °C

Exercise: // returns reported melting point for input "CC1(C)C(=O)Nc2ccc(-c3cccc(C#N)c3)cc21"
Solution: 200.2 to 202 °C

Exercise: // returns reported melting point for input "N#Cc1cc(F)cc(-c2cc([N+](=O)[O-])c3c(c2)C2(CCCCC2)C(=O)N3)c1"
Solution: 196 °C

====

Experimental endpoint: melting point

Take a look at these entries with their results.
CC1(C)C(=O)Nc2ccc(-c3cc(F)cc([N+](=O)[O-])c3)cc21 :: 231.2 to 232.7 °C
O=C1Nc2ccc(-c3cc(F)cc([N+](=O)[O-])c3)cc2C12CCCCC2 :: 191 to 193 °C
CC(C)(C)OC(=O)n1cccc1-c1ccc2c(c1)C(C)(C)C(=O)N2 :: 168.4 to 170.2 °C
N#Cc1cc(F)cc(-c2cc(N)c3c(c2)C2(CCCCC2)C(=O)N3)c1 :: 241 to 243 °C
N#Cc1coc(-c2ccc3c(c2)C2(CCCCC2)C(=O)N3)c1 :: 243 to 245 °C
Cc1c(-c2ccc3c(c2)C2(CCCCC2)C(=O)N3)sc2ccc(Cl)cc12 :: 256 to 258 °C

Exercise: // returns reported melting point for input "N#Cc1cc(F)cc(-c2cc(Br)c3c(c2)C2(CCCCC2)C(=O)N3)c1"
Solution: 217 °C

Exercise: // returns reported melting point for input CC#CC1(OC)C(=O)Nc2ccc(-c3cccc(Cl)c3)cc21 (stereo not shown)
Solution: > 190 °C (dec.)

Exercise: // returns reported melting point for input "O=C1Nc2ccc(-c3cccc([N+](=O)[O-])c3)cc2C12CCCC2"
Solution: 238 to 240 °C

====

Experimental endpoint: melting point

CCC1C(=O)Nc2ccc(-c3cccc(Cl)c3)cc21 (stereo not shown) :: 118 to 120 °C

Exercise: // returns reported melting point for input "O=C1Nc2ccc(-c3cccc(Cl)c3)cc2C12OCCO2"
Solution: 159 to 161 °C

Exercise: // returns reported melting point for input "O=C1Nc2ccc(-c3cccc(F)c3)cc2C12CCCCC2"
Solution: 171 to 172 °C

Exercise: // returns reported melting point for input "O=C1Nc2ccc(-c3ccc(F)c(Cl)c3)cc2C12CCCCC2"
Solution: 188 to 189 °C

Exercise: // returns reported melting point for input "O=C1Nc2ccc(-c3ccc(F)c(Cl)c3)cc2C12CCCC2"
Solution: 202 to 204 °C

Exercise: // returns reported melting point for input "N#Cc1cc(-c2ccc3c(c2)C2(CCCC2)C(=O)N3)ccc1F"
Solution: 264 to 266 °C

Exercise: // returns reported melting point for input "N#Cc1cccc(-c2ccc3c(c2)C2(CCCCC2)C(=O)N3)c1"
Solution: 190 to 191 °C

Exercise: // returns reported melting point for input "Cc1cc(C#N)sc1-c1ccc2c(c1)C(C)(C)C(=O)N2"
Solution: 192.3 to 193 °C

====

In this section, each of the compounds is paired with its reported melting point.

Cc1cc(C#N)sc1-c1ccc2c(c1)C1(CCCCC1)C(=O)N2 [Example 36] :: 200 to 203 °C
N#Cc1csc(-c2ccc3c(c2)C2(CCCCC2)C(=O)N3)c1 [Example 38] :: 188 to 190 °C
O=C1Cc2cc(-c3cccc([N+](=O)[O-])c3)ccc2N1 [Example 1] :: 269 °C

Exercise: // returns reported melting point for input CC1(C)C(=O)Nc2ccc(-c3cc(F)cc(Cl)c3)cc21 [Example 70]
Solution: 205.9 to 206.8 °C

Exercise: // returns reported melting point for input N#Cc1ccc(-c2ccc3c(c2)C2(CCCCC2)C(=O)N3)cc1F [Example 63]
Solution: 258 to 260 °C
